Peptide text beside a SMILES is read from it.
logP under 3 gets TRUE, anything at or over 3 gets FALSE.

Sample answers from the record:
{"columns": ["compound", "cat"],
 "data": [
  ["CC(=O)N[C@@H](C)C(=O)N[C@@H](CC(C)C)C(N)=O (Ac-Ala-Leu-NH2)", "TRUE"],
  ["Cc1ccc(CO)cc1", "TRUE"],
  ["CCCc1cc(OC)c(CC(C)N)cc1OC (configuration not stated)", "FALSE"],
  ["O=C(CN1CCCCC1)Nc1cccc(I)c1", "FALSE"],
  ["CCC1(C2=CC3CCC(C2)C3)C(=O)NC(=O)NC1=O (configuration not stated)", "TRUE"]
]}

For this compound, is logP lower than 3? c1cc2nc[nH]c2cn1
TRUE

* * *

logP under 2 gets condition met, anything at or over 2 gets condition not met.

Sample answers from the record:
{"columns": ["molecule", "cat"],
 "data": [
  ["Cc1cc(C)[nH]n1", "condition met"],
  ["NCCCc1ccccc1", "condition met"],
  ["CCC1(c2ccccc2)C(=O)NC(=O)NC1=O", "condition met"]
]}

For this molecule, is logP lower than 2? O=C(C=Cc1ccccc1)Nc1ccccc1
condition not met

Note, next up: O=Cc1ccsc1
condition met

* * *

experimental.readout: logP

Reference set, count: 8
{"columns": ["molecule", "result"],
 "data": [
  ["CN(CC(F)(F)F)N=Nc1ccc(C(N)=O)cc1", 1.86],
  ["CC(=O)Nc1nccs1", 0.76],
  ["CCCCOC(=O)c1ccc(N)cc1", 2.87],
  ["N#C/C=C/c1ccccc1", 1.96],
  ["O=C(O)C(CO)c1ccccc1 (centres undefined)", 0.77],
  ["CCOc1ccc(CC(=O)O)cc1", 1.95],
  ["O=c1ccn(C2OC(CO)C(O)C2O)c(=O)[nH]1 (centres undefined)", -1.98],
  ["c1ccc(-c2cc3ccccn3c2)cc1", 4.29]
]}

For the molecule [N-]=[N+]=Nc1ccccc1 , what logP is on record?
2.59

* * *

logP under 1 gets Fulfilled, anything at or over 1 gets Not fulfilled.

Sample answers from the record:
{"columns": ["compound", "cat"],
 "data": [
  ["O=C1C=C(Cl)C(=O)c2ccccc21", "Not fulfilled"],
  ["CC(=O)c1ccc(O)cc1", "Not fulfilled"],
  ["Oc1ccc2ccccc2c1", "Not fulfilled"],
  ["Nc1ccc(Cl)cc1N", "Not fulfilled"],
  ["N#CC1CC1", "Fulfilled"]
]}

For this compound, is logP lower than 1? NCCCCc1cccnc1
Fulfilled

Note, next up: CS(=O)(=O)c1c(F)c(F)c(F)c(F)c1F
Not fulfilled

Note, next up: O=NN(c1ccccc1)c1ccccc1
Not fulfilled

Note, next up: COC1C(O)CC(OC2C(O)CC(OC3C(O)CC(OC4CCC5(C)C(CCC6C5CC(OC(C)=O)C5(C)C(C7=CC(=O)OC7)CCC65O)C4)OC3C)OC2C)OC1C (stereo not given)
Not fulfilled

Note, next up: NC(CC(=O)O)c1ccccc1 (stereo not given)
Fulfilled

Note, next up: O=[N+]([O-])C=Cc1ccccc1
Not fulfilled

Note, next up: CCCCCCOc1ccc(S(N)(=O)=O)cc1
Not fulfilled

* * *

experimental.readout: logP
Could you respond with only the numeric value?

For the compound CS(=O)(=O)c1ccc(C(O)C(CO)NC(=O)C(Cl)Cl)cc1 (stereo unspecified) , what logP is on record?
-0.27

Note, next up: CCOC(=O)C(=Cc1cccc(F)c1)C(C)=O
2.46

Note, next up: Nc1ccc(Cc2ccc(N)cc2)cc1
1.59

Note, next up: O=C(O)COc1ccc(O)cc1
0.65

Note, next up: Cc1cccc(N)c1
1.4

Note, next up: COc1ccc(C=CC(=O)O)cc1OC
2.34

Note, next up: NCCCCCc1ccccn1
1.32

Note, next up: O=C1C2(Cl)C3(Cl)C4(Cl)C(Cl)(Cl)C5(Cl)C3(Cl)C1(Cl)C5(Cl)C24Cl (stereo unspecified)
5.41

Note, next up: NC(CC12CC3CC(CC(C3)C1)C2)C(=O)O (stereo unspecified)
0.43

Note, next up: c1cc2c3c(cccc3c1)CC2
3.92

Note, next up: Nc1nc(N)nc(-c2cccc([N+](=O)[O-])c2)n1
1.57

* * *

experimental.readout: logP
Could you respond with only the numeric value?

{"columns": ["compound", "experimental.readout", "readout.number"],
 "data": [
  ["C=C(C)C(=O)OCCCC", "logP", 2.88],
  ["O=C(COC(=O)c1ccccc1)NC1CCCCC1", "logP", 2.81]
]}

Now for another entry.
For the compound OCC=Cc1ccccc1 , what logP is on record?
1.95

* * *

experimental.readout: logP

{"columns": ["compound", "logP"],
 "data": [
  ["CC(=O)c1ccc(OCC(=O)O)cc1", 0.87],
  ["c1ccc2c(c1)ccc1c3ccc4ccccc4c3[nH]c21", 6.4],
  ["O=Cc1ccccn1", 0.44],
  ["Cc1[nH]ccc(=O)c1O", -0.49],
  ["CCOC(=O)CNC(=O)CNC(=O)CCCCSc1ncnc2nc[nH]c12", 0.5]
]}

For the compound Cc1ccc(C=NO)cc1 , what logP is on record?
2.4

* * *

logP under 1 gets condition met, anything at or over 1 gets condition not met.

Sample answers from the record:
{"columns": ["molecule", "cat"],
 "data": [
  ["Nc1ccc(-c2nc([N+](=O)[O-])c[nH]2)cc1", "condition met"],
  ["CN(C)C(=O)Nc1cccc(C(F)(F)F)c1", "condition not met"],
  ["Cc1cn(C2OC(CO)C(O)C2O)c(=O)nc1N (centres undefined)", "condition met"],
  ["C=CCC1=C(C)C(OC(=O)C2C(C=C(C)C)C2(C)C)CC1=O (centres undefined)", "condition not met"],
  ["CC(=O)C(=Cc1ccccc1Cl)C(C)=O", "condition not met"],
  ["CCCCCCCCCCCCCC", "condition not met"]
]}

For this molecule, is logP lower than 1? CCNCCc1cccnc1
condition met

Note, next up: CN1CC[C@]23CCCC[C@H]2[C@H]1Cc1ccc(O)cc13
condition not met

Note, next up: O=C(Cc1cccs1)N[C@@H]1C(=O)N2C(C(=O)[O-])=C(C[n+]3ccccc3)CS[C@H]12
condition met

Note, next up: c1ccc2c(c1)CCO2
condition not met

Note, next up: OC[C@H]1O[C@@H](Oc2ccccc2)[C@H](O)[C@@H](O)[C@@H]1O
condition met

Note, next up: NC=O
condition met

Note, next up: Clc1cc(Cl)cc(Cl)c1
condition not met

* * *

Catalogue of logP readings, one per entry.
Could you respond with only the numeric value?

Reference set, count: 2
{"columns": ["compound", "readout.number"],
 "data": [
  ["CCCCC(=O)Nc1ccccc1", 2.61],
  ["OCCCc1nc2ccccc2[nH]1", 1.25]
]}

For the molecule c1ccc(C23CC4CC(CC(C4)C2)C3)cc1 , what logP is on record?
5.55

Note, next up: C1=c2ccc3cccc4ccc(c2c43)CC1
4.92

Note, next up: CC(C)c1cccc(OCC(=O)O)c1
2.59

Note, next up: O=C1OCc2c(Cl)c(Cl)c(Cl)c(Cl)c21
3.2

* * *

logP under 2 gets Y, anything at or over 2 gets N.

Sample answers from the record:
{"columns": ["compound", "cat"],
 "data": [
  ["CCC(=O)O", "Y"],
  ["CN(C)C(N(C)C)=S(I)c1cc(Cl)c(Cl)c(Cl)c1 (stereo not drawn)", "Y"],
  ["NC(Cc1c[nH]c2ccccc12)C(=O)O (racemic)", "Y"],
  ["COc1cccc(NC(=O)N(CCCl)N=O)c1", "N"]
]}

Alright, here's another compound for you.
For this compound, is logP lower than 2? NS(=O)(=O)c1cccnc1
Y

* * *

experimental.readout: logP
Could you respond with only the numeric value?

For the compound O=[N+]([O-])c1cnc(NC(CO)C(O)CO)cn1 (centres undefined) , what logP is on record?
-0.89

Note, next up: CC(=O)Nc1ccc(C=O)cc1
1.25

* * *

Catalogue of logP readings, one per entry.

Reference set, count: 3
{"columns": ["compound", "logP"],
 "data": [
  ["CNC(=O)Oc1ccc(C(C)=O)cc1", 1.01],
  ["CNC(=S)NCCSCc1c[nH]cn1", 0.16],
  ["CCC(C)C(NCc1ccccc1)C(=O)O (stereo not given)", -0.27]
]}

For the compound CCO[Si](OCC)(OCC)c1ccccc1 , what logP is on record?
2.99

Note, next up: CCCCOC(=O)NCC(C)c1ncc([N+](=O)[O-])[nH]1 (stereo not given)
1.22

* * *

Catalogue of logP readings, one per entry.

{"columns": ["compound", "experimental.readout", "result"],
 "data": [
  ["CCOc1ccccc1O", "logP", 1.68],
  ["O=C(c1ccccc1)C(F)(F)F", "logP", 2.15],
  ["COc1ccc(C(C)=O)cc1", "logP", 1.74],
  ["Cn1ccnc1", "logP", -0.06],
  ["CC(C)C(N)C(=O)O (stereo unspecified)", "logP", -2.26]
]}

Now for another entry.
For the compound CN(c1ccccc1)c1ccccc1 , what logP is on record?
3.9

Data origin, for the record: the OPERA property sets (Mansouri et al. 2018)
